# TARGET: human PTH1 receptor (Homo sapiens, UniProt Q03431)
# Sequence (Q03431 27-593): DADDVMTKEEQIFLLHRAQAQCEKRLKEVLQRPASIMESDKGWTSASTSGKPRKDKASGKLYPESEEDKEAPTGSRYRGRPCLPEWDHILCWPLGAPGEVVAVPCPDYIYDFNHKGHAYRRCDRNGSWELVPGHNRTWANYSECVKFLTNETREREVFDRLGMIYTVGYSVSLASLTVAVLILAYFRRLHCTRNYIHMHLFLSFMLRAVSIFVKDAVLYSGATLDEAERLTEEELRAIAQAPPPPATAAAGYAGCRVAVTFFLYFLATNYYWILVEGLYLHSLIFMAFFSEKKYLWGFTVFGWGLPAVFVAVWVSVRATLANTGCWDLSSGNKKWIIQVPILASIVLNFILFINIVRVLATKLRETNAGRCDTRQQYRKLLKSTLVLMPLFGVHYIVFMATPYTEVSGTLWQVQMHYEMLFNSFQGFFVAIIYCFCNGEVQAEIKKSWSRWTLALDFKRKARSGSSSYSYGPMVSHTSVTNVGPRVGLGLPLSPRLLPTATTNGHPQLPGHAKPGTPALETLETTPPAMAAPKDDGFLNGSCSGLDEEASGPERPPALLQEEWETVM
# TEST SUMMARY: In vitro cAMP signal activity in HKRK-B7 cells (LLC-PK1 cells overexpressing the human PTH1 receptor)
# Assay type: cell-based
# MEASUREMENT CONTEXT: HKRK-B7 cells; compound at 1×10^−3 M; cAMP produced as percentage of that produced by hPTH(1-34) at 100 nM
Listing: cAMP production activity (%) of selected molecules
Hi! Could you send only the number? It should be in %, unit omitted.

// worked examples, cAMP production activity (%) included
INSERT INTO results (molecule, obs_value) VALUES
  ('O=C1NC(C2CCCCC2)=NC12CCN(S(=O)(=O)CCCCc1cccc3[nH]ccc13)CC2', 41),
  ('CC(=O)Nc1ccc(CCS(=O)(=O)N2CCC3(CC2)N=C(c2ccccc2C#N)NC3=O)c(C)c1', 74);

response.value for `CCCCCCCCCC1=NC2(CCN(S(=O)(=O)CCc3ccc(N(CCOCCO)C(C)=O)cc3C)CC2)C(=O)N1` (field: cAMP production activity (%)) = 114

Summary for this molecule, `Cc1cc(C(=O)N2CCC(O)(CF)CC2)cc(C)c1/C=C/S(=O)(=O)N1CCC2(CC1)N=C(c1ccc(Cl)c(OCC(F)(F)C(F)(F)F)c1)NC2=O` : cAMP production activity (%) is 61

Given item `COC(=O)c1cc(C)c(S(=O)(=O)N2CCC3(CC2)N=C(C2CCCCC2)NC3=O)s1` , the value recorded as its cAMP production activity (%) is 51

The value of cAMP production activity (%) measured for the molecule `NCCn1ccc2c(/C=C/S(=O)(=O)N3CCC4(CC3)N=C(C3CCCCC3)NC4=O)cccc21` turned out to be 22

Value of cAMP production activity (%) reported for the molecule Cc1cc(CN2CCCC2=O)cc(C)c1CCS(=O)(=O)N1CCC2(CC1)N=C(C1CCC(C)CC1)NC2=O (stereo not drawn) is 30

Short answer for `Cc1cc(NS(N)(=O)=O)ccc1CCS(=O)(=O)N1CCC2(CC1)N=C(c1cccc(OC(F)(F)F)c1)NC2=O` : cAMP production activity (%) was 61

Ref: patent US9169254B2
